# measurement target: T1, HDAC8 (UniProt Q9BY41 1-377)
# T1 sequence (looked up): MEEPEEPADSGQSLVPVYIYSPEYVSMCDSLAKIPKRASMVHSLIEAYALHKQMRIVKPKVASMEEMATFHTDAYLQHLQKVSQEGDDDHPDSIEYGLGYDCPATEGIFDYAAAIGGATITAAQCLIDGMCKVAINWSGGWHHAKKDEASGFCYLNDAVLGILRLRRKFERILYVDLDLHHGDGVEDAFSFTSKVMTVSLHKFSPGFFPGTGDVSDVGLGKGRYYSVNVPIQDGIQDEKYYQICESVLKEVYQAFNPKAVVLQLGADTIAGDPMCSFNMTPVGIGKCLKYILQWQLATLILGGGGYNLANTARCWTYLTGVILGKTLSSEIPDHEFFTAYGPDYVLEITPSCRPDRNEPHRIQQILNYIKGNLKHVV
# test: fluorescence polarisation
pKd: −log10 of the molar value. Where no end group is shown, it is not given here. [ ]: non-standard residue; d: D form. Nle = CCCC[C@H](N)C(=O)O
recorded endpoint: pKd

[[record]]
binder = "CQSLWMN[Nle] (also: 5-FAM conjugated, site not given here) [5-FAM-conjugated LinH8a’]"
recorded_endpoint = "pKd"
inequality_sign = "="
recorded_value = 4.51

[[record]]
binder = "CQSLWMNK (also: 5-FAM conjugated, site not given here) [5-FAM-conjugated LinH8a]"
recorded_endpoint = "pKd"
inequality_sign = "<"
recorded_value = 4.30

